A collection of binders and their measured glycan array binding signal (z-score)
# Assay System: Fuc(a1-2)Gal(b1-3)GalNAc(b1-3)Gal(a1-4)Gal(b1-4)Glc
# Experiment Description: glycan array binding signal (z-score within array); higher = stronger binding
# Assay Context: glycan notation: IUPAC condensed, linker removed
Shown is part of a subset that was picked to be rich in the strongest signals.

FBG1 (Homo sapiens), Q9UK22 (protein) MDGDGDPESVGQPEEASPEEQPEEASAEEERPEDQQEEEAAAAAAYLDELPEPLLLRVLAALPAAELVQACRLVCLRWKELVDGAPLWLLKCQQEGLVPEGGVEEERDHWQQFYFLSKRRRNLLRNPCGEEDLEGWCDVEHGGDGWRVEELPGDSGVEFTHDESVKKYFASSFEWCRKAQVIDLQAEGYWEELLDTTQPAIVVKDWYSGRSDAGCLYELTVKLLSEHENVLAEFSSGQVAVPQDSDGGGWMEISHTFTDYGPGVRFVRFEHGGQDSVYWKGWFGARVTNSSVWVEP | 0.049

Entry SUN4 (Saccharomyces cerevisiae), P53616 (protein) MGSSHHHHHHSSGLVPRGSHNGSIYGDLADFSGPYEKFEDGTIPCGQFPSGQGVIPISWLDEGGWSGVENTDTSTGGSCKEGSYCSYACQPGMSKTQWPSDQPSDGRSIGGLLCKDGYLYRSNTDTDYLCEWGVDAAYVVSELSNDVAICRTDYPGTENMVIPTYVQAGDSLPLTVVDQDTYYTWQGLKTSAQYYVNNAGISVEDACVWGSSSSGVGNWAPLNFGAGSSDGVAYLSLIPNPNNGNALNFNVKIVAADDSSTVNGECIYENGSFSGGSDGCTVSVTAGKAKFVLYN , glycan array binding signal (z-score) reported as 0.954

Values from the supplement of paper PMC8728848
